Tested on: Ryegrass, Italian (Italian ryegrass, Lolium multiflorum)
Experiment: Test A preemergence, Ryegrass, Italian
Format: in vivo
Details: Preemergence, 125 g ai/ha; visual injury on 0 to 100 scale (0 no effect, 100 complete control), approximately 10 days
Source text: Seeds of plant species selected from barnyardgrass (Echinochloa crus-galli), kochia (Bassia scoparia), ragweed (common ragweed, Ambrosia artemisiifolia), Ryegrass, Italian (Italian ryegrass, Lolium multiflorum), Foxtail, Giant (giant foxtail, Setaria faberi), and pigweed (Amaranthus retroflexus) were planted into a blend of loam soil and sand and treated preemergence with a directed soil spray using test chemicals formulated in a non-phytotoxic solvent mixture which included a surfactant. […]
Note to self: use yes (1) only for Ryegrass, Italian plant response rating readings below 70; a reading exactly at 70 still gets no (0).

molecule | label
Cc1cc(C)c(-c2ccnn(CC(C)C)c2=O)cc1NS(=O)(=O)C(F)(F)F | yes (1)
Cc1cc(C)c(C2=NOC3(CCC(F)(F)CC3)C2)cc1NS(=O)(=O)C(F)(F)F | no (0)
Cc1ccc(-c2ccnn(C)c2=O)cc1NS(=O)(=O)C(F)(F)F | yes (1)
Cc1cc(C)c(N(S(=O)(=O)C(F)(F)F)S(=O)(=O)C(F)(F)F)cc1-c1cc(Br)nn(C)c1=O | no (0)
CCn1nc(Cl)cc(-c2cc(NS(=O)(=O)C(F)(F)F)c(C)cc2C)c1=O | no (0)
Cc1cc(C)c(C2=NOC(C(C)(C)C)C2)cc1NS(=O)(=O)C(F)(F)F (centres unmarked) | no (0)
CCCCC(=O)OCN(c1cc(C2=NOC3(CCCC3)C2)c(C)cc1C)S(=O)(=O)C(F)(F)F | no (0)
